Values from the NIST ThermoML archive (doi:10.1016/j.jct.2017.11.017)

experiment: activity coefficient (dimensionless); of the first substance listed, at infinite dilution; xn = mol fraction of the nth substance listed
assayContext: 368.15 K; 101.33 kPa; Liquid; Chromatography; x1 = 0
Could you please report measured activity coefficient for the items listed next?
Provide a numeric answer; units are not to be included.

Query: Need activity coefficient, item C1COCCO1 [1,4-dioxane] + C[N+]1(CCCO)CCOCC1.N#C[N-]C#N
Reply: 2.59

Query: Queued: CCCC=O [butanal] + C[n+]1ccn(CCCO)c1.N#CN=C=[N-]
Reply: 3.95

Query: Queued: CC(C)CO [2-methyl-1-propanol] + C[n+]1ccn(CCCO)c1.N#CN=C=[N-]
Reply: 2.58

Query: Queued: C1CCOC1 [tetrahydrofuran] + C[n+]1ccn(CCCO)c1.N#CN=C=[N-]
Reply: 3.67

---

experiment: activity coefficient (dimensionless); of the first substance listed, at infinite dilution; xn = mol fraction of the nth substance listed
assayContext: 348.15 K; 101.33 kPa; Liquid; Chromatography; x1 = 0
Could you please report measured activity coefficient for the items listed next?
Provide a numeric answer; units are not to be included.

Query: Need activity coefficient, item Cc1ccccc1 [toluene] + C[n+]1ccn(CCCO)c1.N#CN=C=[N-]
Reply: 8.51

Query: Queued: CC(C)(C)O [2-methylpropan-2-ol] + C[N+]1(CCCO)CCOCC1.N#C[N-]C#N
Reply: 4.17

Query: Queued: O [water] + C[n+]1ccn(CCCO)c1.N#CN=C=[N-]
Reply: 0.38

Query: Queued: Cc1cccc(C)c1 [1,3-dimethylbenzene] + C[N+]1(CCCO)CCOCC1.N#C[N-]C#N
Reply: 24.3

Query: Queued: C#CCCC [1-pentyne] + C[N+]1(CCCO)CCOCC1.N#C[N-]C#N
Reply: 22.4

Query: Queued: C1=CCCCC1 [cyclohexene] + C[n+]1ccn(CCCO)c1.N#CN=C=[N-]
Reply: 31.4

Query: Queued: C1CCCCCCC1 [cyclooctane] + C[N+]1(CCCO)CCOCC1.N#C[N-]C#N
Reply: 298

Query: Queued: C1CCCCCCC1 [cyclooctane] + C[n+]1ccn(CCCO)c1.N#CN=C=[N-]
Reply: 143

Query: Queued: CCCC(C)=O [pentan-2-one] + C[n+]1ccn(CCCO)c1.N#CN=C=[N-]
Reply: 5.46

Query: Queued: c1ccsc1 [thiophene] + C[N+]1(CCCO)CCOCC1.N#C[N-]C#N
Reply: 3.64

Query: Queued: CC(C)CO [2-methyl-1-propanol] + C[N+]1(CCCO)CCOCC1.N#C[N-]C#N
Reply: 4.25

Query: Queued: C=COC(C)=O [vinyl acetate] + C[n+]1ccn(CCCO)c1.N#CN=C=[N-]
Reply: 5.3

Query: Queued: CCCc1ccccc1 [propylbenzene] + C[n+]1ccn(CCCO)c1.N#CN=C=[N-]
Reply: 27.9

Query: Queued: Cc1ccccc1C [1,2-dimethylbenzene] + C[n+]1ccn(CCCO)c1.N#CN=C=[N-]
Reply: 12

Query: Queued: C=Cc1ccccc1 [styrene] + C[N+]1(CCCO)CCOCC1.N#C[N-]C#N
Reply: 10.8

Query: Queued: C=CCCCCCC [oct-1-ene] + C[n+]1ccn(CCCO)c1.N#CN=C=[N-]
Reply: 245

Query: Queued: C#CCCCC [1-hexyne] + C[N+]1(CCCO)CCOCC1.N#C[N-]C#N
Reply: 39.1

Query: Queued: CCCCCCCCCC [decane] + C[n+]1ccn(CCCO)c1.N#CN=C=[N-]
Reply: 1170
